B1: MGC27345 (parent)
chain: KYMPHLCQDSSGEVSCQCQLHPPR

Variants of: B1
Assay: protein stability index of a GFP-peptide fusion (GPS, HEK-293T) (PSI 1-6); higher = more stable;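 note: lentivirally expressed fusions sorted by FACS into six bins by GFP to DsRed ratio, PSI derived from sequencing read proportions per bin multiplied by bin number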
Settings: c terminus: a fixed tail appended
Give met when the value for protein stability index is at least 2. Give not met when it is less.

# variant.label, class.assignment
measured = [
    ("K1D", "met"),
    ("S15E", "met"),
    ("P23G", "met"),
    ("C18F", "not met"),
    ("P4G", "not met"),
    ("H5Q", "met"),
    ("D9E", "met"),
    ("M3H", "met"),
    ("Y2I", "met"),
    ("L6C", "met"),
    ("C16H", "met"),
    ("S10M", "met"),
    ("M3P", "met"),
    ("P23L", "met"),
    ("K1F", "not met"),
    ("K1P", "met"),
    ("M3D", "met"),
    ("S15D", "met"),
    ("S10Y", "met"),
    ("P4C", "met"),
    ("Q8F", "met"),
    ("R24H", "met"),
    ("S15Y", "met"),
    ("Y2M", "met"),
    ("P4F", "not met"),
    ("S11V", "not met"),
]
